Hello, the source for this data is ChEMBL document CHEMBL4316599, in case you need it.

- method: Cytotoxicity against human PBL after 72 hrs by MTT assay
- Format: cell-based
- condition_info: peripheral blood lymphocytes (PBL)
Answer each item with its documented GI50 at 72 h.
Express the result in µM but write the number alone.

Form field GI50 at 72 h, entry O=C1Nc2c(ccc3ccccc23)/C1=C\c1c(-c2cccnc2)nc2sccn12 : 3.1

Form field GI50 at 72 h, entry O=C1Nc2c(ccc3ccccc23)C1=Cc1c(-c2ccncc2)nc2sccn12 : 4.5

* * *

- system_under_test: Tubulin (Bos taurus) (UniProt Q6B856+Q862L2+Q862F3)
- method: Inhibition of [3H]colchicine binding to bovine brain tubulin at 50 uM after 20 mins relative to control
observed_property: inhibition

Form field inhibition, entry O=C1Nc2c(ccc3ccccc23)/C1=C\c1c(-c2cccnc2)nc2sccn12 : 56%

Form field inhibition, entry Cc1nc2sccn2c1-c1nc2sccn2c1C=C1C(=O)Nc2cc(Cl)ccc21 : 28%

Form field inhibition, entry COc1nc2sc(C)cn2c1/C=C1/C(=O)Nc2ccccc21 : 81%

Form field inhibition, entry O=C1Nc2c(ccc3ccccc23)C1=Cc1c(-c2ccncc2)nc2sccn12 : 51%
